compounds and their reported MIC
# Test system: Streptococcus pneumoniae BS 3
# ASSAY_NOTES: In vitro antibacterial activity, MIC, broth microdilution
# Type: cell-based
# TEST_SETTINGS: Streptococcus pneumoniae, BS3; S. pneumoniae BS 3; MHB + 5% horse serum; 37° C., 18 hours; read-out: minimum inhibiting concentration MIC
Field format: number, assumed µg/mL, no unit text.

Guide cases for MIC, answers given:
[
  {
    "SMI": "CC[C@H]1OC(=O)[C@H](C)[C@@H](O[C@H]2C[C@@](C)(OC)[C@@H](O)[C@H](C)O2)[C@H](C)[C@@H](O[C@@H]2O[C@H](C)C[C@H](N(C)C)[C@H]2O)[C@](C)(O)C[C@@H](C)/C(=N\\OCCNCCCCCCNCc2ccc(F)cc2)[C@H](C)[C@@H](O)[C@]1(C)O",
    "TARGET_SYSTEM": "Streptococcus pneumoniae BS 3",
    "MIC (µg/mL)": 0.0156
  },
  {
    "SMI": "CC[C@H]1OC(=O)[C@H](C)[C@@H](O[C@H]2C[C@@](C)(OC)[C@@H](O)[C@H](C)O2)[C@H](C)[C@@H](O[C@@H]2O[C@H](C)C[C@H](N(C)C)[C@H]2O)[C@](C)(O)C[C@@H](C)/C(=N\\OCCCCCNCCCCCCNCc2ccccc2)[C@H](C)[C@@H](O)[C@]1(C)O",
    "TARGET_SYSTEM": "Streptococcus pneumoniae BS 3",
    "MIC (µg/mL)": 0.25
  }
]

For the compound "CC[C@H]1OC(=O)[C@H](C)[C@@H](O[C@H]2C[C@@](C)(OC)[C@@H](O)[C@H](C)O2)[C@H](C)[C@@H](O[C@@H]2O[C@H](C)C[C@H](N(C)C)[C@H]2O)[C@](C)(O)C[C@@H](C)/C(=N\OCCNCCCCCCNCc2ccc(Oc3ccccc3)cc2)[C@H](C)[C@@H](O)[C@]1(C)O" , the measured MIC on Streptococcus pneumoniae BS 3 was 0.0078

====

Reported MIC for target or system Escherichia coli ATCC 25922, by entry.
Field format: number, assumed µg/mL, no unit text.

[
  {
    "COMPOUND": "CC[C@H]1OC(=O)[C@H](C)[C@@H](O[C@H]2C[C@@](C)(OC)[C@@H](O)[C@H](C)O2)[C@H](C)[C@@H](O[C@@H]2O[C@H](C)C[C@H](N(C)C)[C@H]2O)[C@](C)(O)C[C@@H](C)/C(=N\\OCCNCCCCCNCc2ccccc2)[C@H](C)[C@@H](O)[C@]1(C)O [Compound 10]",
    "VALUE_UNITS": "µg/mL",
    "MIC": 4
  }
]

For the compound CC[C@H]1OC(=O)[C@H](C)[C@@H](O[C@H]2C[C@@](C)(OC)[C@@H](O)[C@H](C)O2)[C@H](C)[C@@H](O[C@@H]2O[C@H](C)C[C@H](N(C)C)[C@H]2O)[C@](C)(O)C[C@@H](C)/C(=N\OCCNCCCCCCNCc2ccc([N+](=O)[O-])cc2)[C@H](C)[C@@H](O)[C@]1(C)O [Compound 35] , the measured MIC on Escherichia coli ATCC 25922 was 1

For the compound CC[C@H]1OC(=O)[C@H](C)[C@@H](O[C@H]2C[C@@](C)(OC)[C@@H](O)[C@H](C)O2)[C@H](C)[C@@H](O[C@@H]2O[C@H](C)C[C@H](N(C)C)[C@H]2O)[C@](C)(O)C[C@@H](C)/C(=N\OCCNCCCCCCNCc2cccc(O)c2)[C@H](C)[C@@H](O)[C@]1(C)O [Compound 25] , the measured MIC on Escherichia coli ATCC 25922 was 8

====

# Test system: Streptococcus pneumoniae BS 3
# ASSAY_NOTES: In vitro antibacterial activity, MIC, broth microdilution
# Format: cell-based
# TEST_SETTINGS: Streptococcus pneumoniae, BS3; S. pneumoniae BS 3; MHB + 5% horse serum; 37° C., 18 hours; read-out: minimum inhibiting concentration MIC
# Method: a) In vitro antibacterial activity The determination of the minimum inhibiting concentrations (MIC), with respect to Gram-positive and Gram-negative bacteria was carried out through the micromethod of gradual broth dilution in double series [National Committee for Clinical Laboratory Standards, 1990; Methods for dilution antimicrobial susceptibility tests for bacteria that grow aerobically; Approved standards […], Villanova, Pa.], by using Mueller Hinton Broth (MHB) as a culture medium. […]
EXPERIMENTAL_ENDPOINT: MIC (µg/mL)
Field format: number, assumed µg/mL, no unit text.

[
  {
    "MOLECULE": "CC[C@H]1OC(=O)[C@H](C)[C@@H](O[C@H]2C[C@@](C)(OC)[C@@H](O)[C@H](C)O2)[C@H](C)[C@@H](O[C@@H]2O[C@H](C)C[C@H](N(C)C)[C@H]2O)[C@](C)(O)C[C@@H](C)/C(=N\\OCCNCCCCCCNCc2ccc(OC)cc2)[C@H](C)[C@@H](O)[C@]1(C)O [Compound 17]",
    "MIC / µg/mL": 0.0312
  },
  {
    "MOLECULE": "CC[C@H]1OC(=O)[C@H](C)[C@@H](O[C@H]2C[C@@](C)(OC)[C@@H](O)[C@H](C)O2)[C@H](C)[C@@H](O[C@@H]2O[C@H](C)C[C@H](N(C)C)[C@H]2O)[C@](C)(O)C[C@@H](C)/C(=N\\OCCNCCCCCCNCc2ccccc2)[C@H](C)[C@@H](O)[C@]1(C)O [Compound 4]",
    "MIC / µg/mL": 0.0156
  },
  {
    "MOLECULE": "CC[C@H]1OC(=O)[C@H](C)[C@@H](O[C@H]2C[C@@](C)(OC)[C@@H](O)[C@H](C)O2)[C@H](C)[C@@H](O[C@@H]2O[C@H](C)C[C@H](N(C)C)[C@H]2O)[C@](C)(O)C[C@@H](C)/C(=N\\OCCNCCCCCCNCc2ccc(-c3ccccc3)cc2)[C@H](C)[C@@H](O)[C@]1(C)O [Compound 30]",
    "MIC / µg/mL": 0.0156
  },
  {
    "MOLECULE": "CC[C@H]1OC(=O)[C@H](C)[C@@H](O[C@H]2C[C@@](C)(OC)[C@@H](O)[C@H](C)O2)[C@H](C)[C@@H](O[C@@H]2O[C@H](C)C[C@H](N(C)C)[C@H]2O)[C@](C)(O)C[C@@H](C)/C(=N\\OCCNCCCCCCNCc2cccc([N+](=O)[O-])c2)[C@H](C)[C@@H](O)[C@]1(C)O [Compound 34]",
    "MIC / µg/mL": 0.0019
  },
  {
    "MOLECULE": "CC[C@H]1OC(=O)[C@H](C)[C@@H](O[C@H]2C[C@@](C)(OC)[C@@H](O)[C@H](C)O2)[C@H](C)[C@@H](O[C@@H]2O[C@H](C)C[C@H](N(C)C)[C@H]2O)[C@](C)(O)C[C@@H](C)/C(=N\\OCCNCCCCCCNCc2cccc(Oc3ccccc3)c2)[C@H](C)[C@@H](O)[C@]1(C)O [Compound 27]",
    "MIC / µg/mL": 0.0078
  },
  {
    "MOLECULE": "CC[C@H]1OC(=O)[C@H](C)[C@@H](O[C@H]2C[C@@](C)(OC)[C@@H](O)[C@H](C)O2)[C@H](C)[C@@H](O[C@@H]2O[C@H](C)C[C@H](N(C)C)[C@H]2O)[C@](C)(O)C[C@@H](C)/C(=N\\OCCNCCCCCCNCc2ccc(O)cc2)[C@H](C)[C@@H](O)[C@]1(C)O [Compound 28]",
    "MIC / µg/mL": 0.25
  }
]

For the molecule CC[C@H]1OC(=O)[C@H](C)[C@@H](O[C@H]2C[C@@](C)(OC)[C@@H](O)[C@H](C)O2)[C@H](C)[C@@H](O[C@@H]2O[C@H](C)C[C@H](N(C)C)[C@H]2O)[C@](C)(O)C[C@@H](C)/C(=N\OCCNCCCCCCNCc2ccc(O)c([N+](=O)[O-])c2)[C@H](C)[C@@H](O)[C@]1(C)O [Compound 36] , the measured MIC on Streptococcus pneumoniae BS 3 was 0.0625

====

# Test system: Escherichia coli ATCC 25922
EXPERIMENTAL_ENDPOINT: MIC
Mention the unit after the number when you answer.

Guide cases for MIC, answers given:
[
  {
    "COMPOUND": "CC[C@H]1OC(=O)[C@H](C)[C@@H](O[C@H]2C[C@@](C)(OC)[C@@H](O)[C@H](C)O2)[C@H](C)[C@@H](O[C@@H]2O[C@H](C)C[C@H](N(C)C)[C@H]2O)[C@](C)(O)C[C@@H](C)/C(=N\\OCCCCCCNCCCCCCNCc2ccccc2)[C@H](C)[C@@H](O)[C@]1(C)O [Compound 6]",
    "MEASURED_RESULT": "4 µg/mL"
  },
  {
    "COMPOUND": "CC[C@H]1OC(=O)[C@H](C)[C@@H](O[C@H]2C[C@@](C)(OC)[C@@H](O)[C@H](C)O2)[C@H](C)[C@@H](O[C@@H]2O[C@H](C)C[C@H](N(C)C)[C@H]2O)[C@](C)(O)C[C@@H](C)/C(=N\\OCCCCCNCCCCCCNCc2ccccc2)[C@H](C)[C@@H](O)[C@]1(C)O [Compound 11]",
    "MEASURED_RESULT": "8 µg/mL"
  }
]

The reported value for CC[C@H]1OC(=O)[C@H](C)[C@@H](O[C@H]2C[C@@](C)(OC)[C@@H](O)[C@H](C)O2)[C@H](C)[C@@H](O[C@@H]2O[C@H](C)C[C@H](N(C)C)[C@H]2O)[C@](C)(O)C[C@@H](C)/C(=N\OCCNCCCCCCNCc2cccc([N+](=O)[O-])c2)[C@H](C)[C@@H](O)[C@]1(C)O [Compound 34] in terms of MIC is 1 µg/mL
